Biological target: human OX1 receptors (Homo sapiens, UniProt O43613)
Construct: expressed in transfected cells; host or cells: CHO cells
Sequence (O43613 whole entry): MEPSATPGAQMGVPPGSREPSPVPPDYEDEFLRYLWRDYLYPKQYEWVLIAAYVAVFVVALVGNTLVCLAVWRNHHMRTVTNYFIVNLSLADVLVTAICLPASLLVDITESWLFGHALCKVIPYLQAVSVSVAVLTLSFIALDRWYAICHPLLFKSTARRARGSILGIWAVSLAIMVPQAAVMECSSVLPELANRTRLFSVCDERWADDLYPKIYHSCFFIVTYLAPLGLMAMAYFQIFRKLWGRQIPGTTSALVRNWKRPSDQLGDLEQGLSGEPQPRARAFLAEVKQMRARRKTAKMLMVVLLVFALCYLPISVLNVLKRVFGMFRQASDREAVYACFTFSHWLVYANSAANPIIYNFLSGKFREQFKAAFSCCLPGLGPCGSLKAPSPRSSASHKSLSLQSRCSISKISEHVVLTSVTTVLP
Experiment: antagonistic activity against human OX1 receptor, calcium fluorimetry (Fluo-4NW) in transfected CHO cells
Assay type: cell-based
Details: CHO cells transfected with human recombinant OX1, activated with orexin-A 3 nM; pKb = co-logarithm of apparent dissociation constant (modified Cheng Prusoff)
observation-type: Kb (nM)

Example results:
# value of Kb, human OX1 receptors (Homo sapiens, UniProt O43613), item Cc1nc(C(=O)N2[C@H](CNc3ccc(C(F)(F)F)cn3)CC[C@H]3C[C@H]32)c(-c2ccccc2)s1 = 2.51

human OX1 receptors (Homo sapiens, UniProt O43613) data for N#Cc1ccc(-c2ncccn2)c(C(=O)N2[C@H](COc3ccc(Cl)cn3)CC[C@H]3C[C@H]32)c1 ; its Kb: 1.26

I = Cc1ccc(-c2ncccn2)c(C(=O)N2[C@H](COc3ccc(C(F)(F)F)cn3)CC[C@H]3C[C@H]32)c1
II = N#Cc1ccc(-c2ncccn2)c(C(=O)N2[C@H](CNc3ccc(C(F)(F)F)cn3)CC[C@@H]3C[C@@H]32)c1
stdin: When I and II are compared, which has the higher number for Kb? Answer by stating the label of the chosen item.
stdout: II
